- system.tested: T1, PUF4 RNA-binding domain (Saccharomyces cerevisiae, UniProt P25339 537-888)
- T1 sequence: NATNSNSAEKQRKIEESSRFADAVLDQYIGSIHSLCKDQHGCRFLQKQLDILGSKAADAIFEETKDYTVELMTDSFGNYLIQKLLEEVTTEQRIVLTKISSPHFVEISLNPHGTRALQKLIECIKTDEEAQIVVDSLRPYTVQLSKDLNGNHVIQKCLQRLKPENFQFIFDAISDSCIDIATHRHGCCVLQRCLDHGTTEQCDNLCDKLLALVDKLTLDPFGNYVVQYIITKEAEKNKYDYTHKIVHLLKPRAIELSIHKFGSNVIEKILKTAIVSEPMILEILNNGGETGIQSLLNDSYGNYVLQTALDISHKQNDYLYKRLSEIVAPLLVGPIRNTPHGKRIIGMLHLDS
- assay.notes: Mg; RNA-MaP; 20 mM Na-HEPES pH 7.4, 30 mM KOAc, 0.75 mM MgCl2, 0.1% Tween-20, 5% glycerol, 0.1 mg/mL BSA, 2 mM DTT; 25 C; 0.0125-409.6 nM protein
- recorded.conditions: tags: N-His6-TEV cleaved; C-SNAP kept, Cy3B-labelled; label: tethered on chip by stalled RNA polymerase
reported.property: Kd (nM)
Your answer should be a plain number; it is taken to be in nM.

binder	measured.number
UCUCUUACUGUAUAUAACUCUCUU (ssRNA) [Id_ii_S1_P3E.2_K3.1_C3.2_[C-2A]_[T-1C]_H3.1_A3.1_F3.1_T3.2_[T9A]_[A10C]]	26.7
Ic_S4_P4E.1_K4.1_C4.1_H4.1_A4.1_[T5A]_[A6T]_F4.1_[T8A]_[A9G]_T4.1 (ssRNA) RNA: UUUGACAACUGAUCGUUCUUUCUUGUAAUUAGUUCUUUCUCGAUCAGUUGUCUUU	467
Id_ii_S4_P5E.2_K5.1_C5.2_[C-2T]_[T-1G]_H5.1_A5.1_F5.1_T5.2_[A12C] (ssRNA) RNA: UUUGACAACUGAUCGUUCUUUCUUGUGUAUUAUUAUCUUCUUUCUCGAUCAGUUGUCUUU	1.56
UCUCUUUGUAUCCAUUCUCUU (ssRNA) [Ic_S1_P4E.1_K4.1_C4.1_H4.1_A4.1_[A6C]_[T7C]_F4.1_[T8A]_[A9T]_T4.1]	362
UCUCUUUGUAUUUGCUCUCUU (ssRNA) [Ic_S1_P4E.1_K4.1_C4.1_H4.1_A4.1_[A6T]_F4.1_[T8G]_[A9C]_T4.1]	350

Ask | Using known records, supply Kd for Ic_S2_P4E.1_K4.1_C4.1_H4.1_A4.1_[T5G]_[A6C]_[T7G]_F4.1_[T8G]_[A9T]_T4.1 (ssRNA) RNA: UUUGAUUAAUAUGAUAUCGUUCUUUCUUGUAGCGGUUUCUUUCUCGAUAUCAUAUUAAUCUUU
Reply | 808

Ask | Using known records, supply Kd for UCUCUUUGUCUGUUAUCUCUU (ssRNA) [Ib_S1_P4E.1_K4.1_C4.1_H4.1_[A4C]_A4.1_[A6G]_F4.1_T4.1]
Reply | 626

Ask | Using known records, supply Kd for UCUCUUCCUGUAUUAUUAAUUCUCUU (ssRNA) [Id_ii_S1_P5E.2_K5.1_C5.2_[T-1C]_H5.1_A5.1_F5.1_T5.2_[T11A]_[A12T]]
Reply | 6.56

Ask | Using known records, supply Kd for UCUCUUGCUGUAUAUUAUUUCUCUU (ssRNA) [Id_ii_S1_P4E.2_K4.1_C4.2_[C-2G]_[T-1C]_H4.1_A4.1_F4.1_T4.2_[G10T]]
Reply | 1.28

Ask | Using known records, supply Kd for UCUCUUUGUAUAACUUCUCUU (ssRNA) [Ic_S1_P4E.1_K4.1_C4.1_H4.1_A4.1_[T7A]_F4.1_[T8C]_[A9T]_T4.1]
Reply | 44.2

Ask | Using known records, supply Kd for Id_ii_S2_P4E.4_K4.3_C4.2_[C-2A]_H4.3_A4.1_F4.1_T4.2_[G10C]_[T11C] (ssRNA) RNA: UUUGAUUAAUAUGAUAUCGUUCUUUCUAUACACUAUUACCUUCUUUCUCGAUAUCAUAUUAAUCUUU
Reply | 10.8

Source listed as paper PMC9352680.
